The reported numbers originate from patent US20020197561A1.

Reported Δλmax by item:
# PROTOCOL_DESCRIPTION: absorption spectra measured in solution (λmax, ε, shift Δλmax after thermal cyclization)
# Assay type: physicochemical
# Parameters: unit: nm; negative = hypsochromic shift
# SETTINGS: table; shift after thermal cyclization
PARAMETER: Δλmax

CCC1Cc2cc(OC)ccc2/C(=C/C=C(\C#N)C(=O)OCCOC)N1 (centres unmarked) [Example 8] :: −50
CCOC(=O)/C(C#N)=C/C=C1\NCCc2ccccc21 [Example 5] :: −46
CCCCN/C=C\c1c(C(=O)OC(C)C)c(=O)oc2cc(OC)c(OC)cc12 [Example 13] :: −50
Cc1ccc(S(=O)(=O)OCc2c(/C=C\NC3CCCCC3)c3ccccc3oc2=O)cc1 [Example 14] :: −15
COc1ccc(Nc2c(C=C(C#N)C#N)c(=O)oc3ccccc23)cc1OC [Example 16] :: −38

====

# PROTOCOL_DESCRIPTION: absorption spectra measured in solution (λmax, ε, shift Δλmax after thermal cyclization)
# Format: physicochemical
# SETTINGS: table
PARAMETER: ε

Cc1ccc(S(=O)(=O)OCc2c(/C=C\NC3CCCCC3)c3ccccc3oc2=O)cc1 :: 21 750
CCc1ccc(N/C=C(/Br)c2c(C#N)c(=O)[nH]c3ccc(CC)cc23)cc1 :: 32 140
Cc1ccc(N/C=C\c2c(C#N)c(=O)oc3ccccc23)cc1C :: 30 820
CCCCNC1=C(C=C(C#N)C#N)CCC1 :: 37 840
CCOC(=O)/C(C#N)=C/C1=C(Nc2ccc(OC)cc2)CCCC1 :: 33 200
CCC1Cc2cc(OC)ccc2/C(=C/C=C(\C#N)C(=O)OCCOC)N1 (stereo not drawn) :: 37 520

====

# PROTOCOL_DESCRIPTION: absorption spectra measured in solution (λmax, ε, shift Δλmax after thermal cyclization)
# Format: physicochemical
# Design: unit: nm (local absorption maximum, 350–470 nm range)
# SETTINGS: table; solvent not given
PARAMETER: λmax

CCCCNC1=C(C=C(C#N)C#N)CCC1 [Example 18] :: 440
CCC1Cc2cc(OC)ccc2/C(=C/C=C(\C#N)C(=O)OCCOC)N1 (centres unmarked) [Example 8] :: 444
CCOC(=O)/C(C#N)=C/C(C#N)=C1\NC(CC)Cc2cc(N(C)C)ccc21 (centres unmarked) [Example 9] :: 452
CCCCN/C=C\c1c(C(=O)OC(C)C)c(=O)oc2cc(OC)c(OC)cc12 [Example 13] :: 422
COc1ccc(Nc2c(C=C(C#N)C#N)c(=O)oc3ccccc23)cc1OC [Example 16] :: 386
Cc1ccc(S(=O)(=O)OCc2c(/C=C\NC3CCCCC3)c3ccccc3oc2=O)cc1 [Example 14] :: 368
CCc1ccc(N/C=C(/Br)c2c(C#N)c(=O)[nH]c3ccc(CC)cc23)cc1 [Example 12] :: 463
N#Cc1c(/C=C\Nc2ccccc2)c2ccc(-n3nccn3)cc2oc1=O [Example 15] :: 468
CCOC(=O)/C(C#N)=C/C1=C(Nc2ccc(OC)cc2)CCCC1 [Example 17] :: 445
CCOC(=O)/C(C#N)=C/C=C1\NCCc2ccccc21 [Example 5] :: 440
Cc1ccc(N/C=C\c2c(C#N)c(=O)oc3ccccc23)cc1C [Example 11] :: 467
